# System: SNB-19 CNS
# Protocol Summary: NCI tumour cell line growth inhibition, 48 h
Where a SMILES comes first, the peptide text is derived from it. The star is where a group is joined. Trt = c1ccc(C(c2ccccc2)(c2ccccc2)*)cc1; Cbz = O=C(OCc1ccccc1)*
Readout Type: TGI

[[record]]
molecule = "O=C1CCN2c3ccccc3[C@H]3Cc4cccc(c4[C@@H]2C3)CCO1"
measurement_target = "SNB-19 CNS"
result = "> 100 µM"

[[record]]
molecule = "C#CC[C@@H]1C(=O)N(Cc2ccc(OC)cc2)[C@@H](C(C)C)C(=O)N1Cc1ccc(OC)cc1"
measurement_target = "SNB-19 CNS"
result = "> 100 µM"

[[record]]
molecule = "CCN(CC)CCCNc1c2c(Cl)cc(Cl)cc2nc2nc(=O)[nH]c(C)c12"
measurement_target = "SNB-19 CNS"
result = "44.3 µM"

[[record]]
molecule = "COC(=O)C(CO)NC(=O)C(CSC(c1ccccc1)(c1ccccc1)c1ccccc1)NC(=O)OCc1ccccc1 (centres undefined) (Cbz-Cys(Trt)-Ser-OMe; configuration not given here)"
measurement_target = "SNB-19 CNS"
result = "50.7 µM"


###

# System: 786-0 renal
# Protocol Summary: NCI tumour cell line growth inhibition, 48 h; in the data active = GI50 below about 0.43 µM; inactive = the rest
Labels: Y (active), N (inactive)

[[record]]
compound = "CCCCN(CCCC)C(=O)[C@H](CC)[C@@H]1CC[C@@H](C)[C@@H]([C@H](C)[C@@H](O)[C@@H](C)C(=O)[C@H](CC)C2O[C@]3(C=C[C@@H](O)[C@]4(CC[C@@](C)([C@H]5CC[C@](O)(CC)[C@H](C)O5)O4)O3)[C@H](C)C[C@@H]2C)O1 (some centres not stated)"
assigned_class = "N"

[[record]]
compound = "CCOC(=O)[C@@H](C)C[C@H](Cc1ccccc1)NC(=O)c1csc([C@@H](C[C@H](C(C)C)N(C)C(=O)[C@@H](NC(=O)[C@H]2CCCCN2C)C(C)(C)CC)OC(C)=O)n1"
assigned_class = "Y"


###

Listed here: items and their measured TGI.
# System: U251 CNS
# Protocol Summary: NCI tumour cell line growth inhibition, 48 h
Readout Type: TGI

[[record]]
compound = "CC(C)N(C(=O)C12C3C4C1C1C2C3C41C#N)C(C)C (stereo not drawn)"
measurement_target = "U251 CNS"
readout_type = "TGI"
result = "> 100 µM"

[[record]]
compound = "Nc1nc(Nc2ccc(Cl)c(Cl)c2)nc2nc[nH]c12"
measurement_target = "U251 CNS"
readout_type = "TGI"
result = "36.5 µM"

[[record]]
compound = "CC1(C)OP(=O)(c2ccccc2)C=C1Sc1ccc([N+](=O)[O-])cc1[N+](=O)[O-] (stereo not drawn)"
measurement_target = "U251 CNS"
readout_type = "TGI"
result = "> 100 µM"

[[record]]
compound = "O=C1NC(=NCc2ccccc2Cl)S/C1=C\\c1ccc2ncccc2c1"
measurement_target = "U251 CNS"
readout_type = "TGI"
result = "> 25 µM"

[[record]]
compound = "COc1ccc(C2=Nc3c(nc(OC)[nH]c3=O)NC(c3ccccc3)C2)cc1 (stereo not drawn)"
measurement_target = "U251 CNS"
readout_type = "TGI"
result = "65.6 µM"

[[record]]
compound = "CSc1ncnc2c1cnn2Cc1cn(COCCO)nn1"
measurement_target = "U251 CNS"
readout_type = "TGI"
result = "> 100 µM"

[[record]]
compound = "C1CNOCCCONCCCNOCCCONC1"
measurement_target = "U251 CNS"
readout_type = "TGI"
result = "> 100 µM"

[[record]]
compound = "COC(=O)C(=O)C(C(=O)OC)C(=O)C(=O)Nc1c(C)cccc1C (stereo not drawn)"
measurement_target = "U251 CNS"
readout_type = "TGI"
result = "> 100 µM"

[[record]]
compound = "O=C(Nc1ccc(Oc2ccc3nc(NC(=O)c4ccco4)[nH]c3c2)cc1)Nc1cc(C(F)(F)F)ccc1F"
measurement_target = "U251 CNS"
readout_type = "TGI"
result = "> 15.3 µM"

[[record]]
compound = "COc1cc(OC2OC(CO)C(O)C(O)C2O)c2c(O)c3c(=O)cc(C)oc3cc2c1 (stereo not drawn)"
measurement_target = "U251 CNS"
readout_type = "TGI"
result = "> 100 µM"

[[record]]
compound = "CC(=O)Nc1[nH]n(C)c(=O)c1-c1nnc(C)s1"
measurement_target = "U251 CNS"
readout_type = "TGI"
result = "> 100 µM"

[[record]]
compound = "O=C1NC2NC3NC(=O)NC3NC2N1 (stereo not drawn)"
measurement_target = "U251 CNS"
readout_type = "TGI"
result = "> 100 µM"

[[record]]
compound = "C[C@H]1CC[P+](Cc2ccccc2)(c2ccccc2)C1 (stereo partly drawn)"
measurement_target = "U251 CNS"
readout_type = "TGI"
result = "> 100 µM"

[[record]]
compound = "COC(=O)CCSC(=O)Nc1ccc(N=Nc2ccccc2)cc1"
measurement_target = "U251 CNS"
readout_type = "TGI"
result = "> 100 µM"

[[record]]
compound = "[N-]=[N+]=Nc1ccccc1-c1ccccc1[N+](=O)[O-]"
measurement_target = "U251 CNS"
readout_type = "TGI"
result = "> 100 µM"

[[record]]
compound = "Cc1nc(N)nc(N)c1CCCCc1ccc(N)cc1"
measurement_target = "U251 CNS"
readout_type = "TGI"
result = "17.6 µM"

[[record]]
compound = "COC(=O)C1(NC(=O)C(Cc2ccccc2)N(C(=O)OC(C)(C)C)C(=O)OC(C)(C)C)CCCC1 (stereo not drawn)"
measurement_target = "U251 CNS"
readout_type = "TGI"
result = "> 100 µM"

[[record]]
compound = "O=C1N/C(=N\\N=C\\c2ccccc2)C(c2ccccc2)O1 (stereo not drawn)"
measurement_target = "U251 CNS"
readout_type = "TGI"
result = "> 100 µM"

[[record]]
compound = "O=C1Nc2ccc(Br)cc2C12CC(c1ccccc1)=NN2 (stereo not drawn)"
measurement_target = "U251 CNS"
readout_type = "TGI"
result = "19.2 µM"

[[record]]
compound = "Cc1c(O)c(=O)ccn1CCN"
measurement_target = "U251 CNS"
readout_type = "TGI"
result = "> 100 µM"

[[record]]
compound = "CC1(C)CCC(Sc2ccccc2)O1 (stereo not drawn)"
measurement_target = "U251 CNS"
readout_type = "TGI"
result = "> 100 µM"

[[record]]
compound = "CCCNC(=O)Nc1c([N+](=O)[O-])cc(C(F)(F)F)cc1[N+](=O)[O-]"
measurement_target = "U251 CNS"
readout_type = "TGI"
result = "> 100 µM"

[[record]]
compound = "CCC(NC(C)c1ccccc1)C(=O)c1ccc(OCc2ccccc2)c(OCc2ccccc2)c1 (stereo not drawn)"
measurement_target = "U251 CNS"
readout_type = "TGI"
result = "> 100 µM"

